Form field: EC50 (one value per entry).
biological target: B7H3 expressed on LPS-stimulated human PBMCs (monocytes) (human) (UniProt Q5ZPR3); experiment: flow cytometry on LPS-stimulated human PBMCs
Sequence (Q5ZPR3 29-534): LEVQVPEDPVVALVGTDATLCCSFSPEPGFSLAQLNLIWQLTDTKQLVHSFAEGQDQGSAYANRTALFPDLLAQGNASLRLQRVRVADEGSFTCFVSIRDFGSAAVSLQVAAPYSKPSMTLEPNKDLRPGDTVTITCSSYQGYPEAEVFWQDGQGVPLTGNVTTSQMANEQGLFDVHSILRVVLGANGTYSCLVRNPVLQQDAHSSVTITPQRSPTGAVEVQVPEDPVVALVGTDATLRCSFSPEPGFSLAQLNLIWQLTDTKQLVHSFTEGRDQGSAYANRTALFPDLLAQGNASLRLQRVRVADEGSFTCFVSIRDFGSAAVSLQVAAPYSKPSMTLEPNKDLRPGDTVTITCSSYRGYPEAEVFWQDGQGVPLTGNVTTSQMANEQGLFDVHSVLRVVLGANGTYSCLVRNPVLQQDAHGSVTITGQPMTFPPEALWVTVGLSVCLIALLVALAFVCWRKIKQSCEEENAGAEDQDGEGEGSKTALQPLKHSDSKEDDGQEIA

BINDER	METRIC	VALUE_REPORTED
#27-2121 (VH2-1-VL2-1) (antibody, IgG1, V domains shown, Humanized antibody from murine #27; also called #27-VH2-1/VL2-1) VH: QVQLVQSGAEVVKPGASVKVSCKASGYTFTNYWMHWVRQAPGQGLEWMGMIHPNSGAFNYNERFKTRVTITVDKSTSTAYMELSSLRSEDTAVYYCARSTALATGYWGQGTLVTVSS VL: DIQLTQSPSFLSASVGDRVTITCSASSSVSYMYWYQQKPGKSPKLLIYDTSNLASGVPSRFSGSGSGTEYTLTISSLQPEDFATYYCQQWSSYPLTFGQGTKLEIK	EC50	< 1 nM

Any idea what its EC50 is? The binder is #27-21 (VH2-2-VL2-1) (antibody, V domains shown, Humanized antibody from murine #27; Detected with anti-human IgG and captured through Fc; also called #27-VH2-2/VL2-1) VH: QVQLVQSGAEVVKPGASVKVSCKASGYTFTNYWMHWVKQAPGQGLEWIGMIHPNSGAFNYNERFKTRVTITVDKSTSTAYMELSSLRSEDTAVYYCARSTALATGYWGQGTLLTVSS VL: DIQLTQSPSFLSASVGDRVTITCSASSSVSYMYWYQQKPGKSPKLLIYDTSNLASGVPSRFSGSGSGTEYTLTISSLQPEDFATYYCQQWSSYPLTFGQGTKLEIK
< 1 nM
